target: UniProt Q16659; assay: KINOMEscan competition binding; details: compound 10.0 µM
Sequence (Q16659 whole entry, looked up): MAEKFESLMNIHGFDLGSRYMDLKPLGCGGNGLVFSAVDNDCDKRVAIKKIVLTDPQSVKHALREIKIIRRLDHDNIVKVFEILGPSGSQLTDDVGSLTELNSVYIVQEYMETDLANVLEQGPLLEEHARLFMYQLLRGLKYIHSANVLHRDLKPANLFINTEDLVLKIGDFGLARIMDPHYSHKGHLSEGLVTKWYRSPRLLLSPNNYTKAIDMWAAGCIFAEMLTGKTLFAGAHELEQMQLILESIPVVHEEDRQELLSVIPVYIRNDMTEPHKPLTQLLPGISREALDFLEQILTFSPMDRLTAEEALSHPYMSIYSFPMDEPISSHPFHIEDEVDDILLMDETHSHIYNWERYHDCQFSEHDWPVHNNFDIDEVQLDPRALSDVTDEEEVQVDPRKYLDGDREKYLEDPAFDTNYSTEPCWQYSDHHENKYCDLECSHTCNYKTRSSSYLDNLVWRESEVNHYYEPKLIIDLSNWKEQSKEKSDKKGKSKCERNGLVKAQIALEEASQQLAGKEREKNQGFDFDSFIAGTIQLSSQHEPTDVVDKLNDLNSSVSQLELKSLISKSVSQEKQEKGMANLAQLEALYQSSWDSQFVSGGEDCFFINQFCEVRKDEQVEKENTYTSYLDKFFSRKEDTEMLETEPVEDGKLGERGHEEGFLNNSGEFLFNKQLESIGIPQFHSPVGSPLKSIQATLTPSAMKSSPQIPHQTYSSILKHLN
Readout type: kinase still bound, per cent of control (%)
Enter your answer as a number in %; do not include the unit.

Dear colleague, I am looking for the recorded kinase still bound, per cent of control of the following compound: `O=C(Nc1cccc(Nc2ncc(Br)c(NCCc3cnc[nH]3)n2)c1)N1CCCC1` 5

Would you mind telling me what kinase still bound, per cent of control value was observed for `C[C@@H](Oc1cc(-c2cnn(C3CCNCC3)c2)cnc1N)c1c(Cl)ccc(F)c1Cl` ? 90

What value of measured kinase still bound, per cent of control is listed for `CNC(=O)c1ccc(Nc2cc(Nc3ccccc3S(=O)(=O)C(C)C)c3cc[nH]c3n2)nc1` ? 100

Which measured kinase still bound, per cent of control value corresponds to `CCN1CCN(C(=O)Cc2ccc(Nc3ncc(F)c(Nc4ccc(C(=O)Nc5ccccc5Cl)cc4)n3)cc2)CC1` ? 21

Look at this compound and give its reported kinase still bound, per cent of control. `C=CC(=O)Nc1cc(-n2c(=O)ccc3cnc4ccc(-c5cn[nH]c5)cc4c32)ccc1C` 95

// kinase still bound, per cent of control lookup, key: `CS(=O)(=O)N1CCN(Cc2cc3nc(-c4cccc5[nH]ncc45)nc(N4CCOCC4)c3s2)CC1` 100

Value lookup for kinase still bound, per cent of control; key = `CCN(CC)CCCCNc1ncc2c(n1)N(C)C(=O)N(c1c(Cl)c(OC)cc(OC)c1Cl)C2` 100

Value lookup for kinase still bound, per cent of control; key = `O=C1NC(=O)/C(=C/c2ccc3nccc(-c4ccncc4)c3c2)S1` 100

Return reported kinase still bound, per cent of control; argument: `Cc1n[nH]c2ccc(-c3cncc(OC[C@@H](N)Cc4c[nH]c5ccccc45)c3)cc12` 100

Suppose we examine the compound `COc1cc2ncn(-c3cc(OCc4ccccc4C(F)(F)F)c(C(N)=O)s3)c2cc1OC` ; what kinase still bound, per cent of control value has been reported? 64

Query: kinase still bound, per cent of control; subject: `COc1cc(N2CCN(C)CC2)ccc1Nc1ncc2c(n1)N(C)c1ccccc1C(=O)N2C` 100

Given the entry `CCN(CC)CCCCNc1ncc2cc(-c3cc(OC)cc(OC)c3)c(NC(=O)NC(C)(C)C)nc2n1` , report its measured kinase still bound, per cent of control. 100

Which kinase still bound, per cent of control value is on record for `CN(C)C/C=C/C(=O)Nc1ccc(C(=O)Nc2cccc(Nc3nccc(-c4cccnc4)n3)c2)cc1` ? 7.4
